# TARGET ENTITY: T1, RSV postfusion F (postF), subtype A (respiratory syncytial virus, subtype A, UniProt P03420 26-513)
# T1 construct: also called F ΔFP; Postfusion subtype A
# ASSAY NOTES: BLI, IgG
Please use Satisfied for Kd under 3 nM and Not satisfied for everything else, ties included.

Request: Threshold test, Kd < 3 nM: ADI-21052 (antibody, V domains shown, also called Ab 300) VH: QVQLVQSGAEVKKPGASVKVSCKASGYTFTSYGISWVRQAPGQGLEWMGWISAYNGNTNYAQNLQGRVTMTTDTSTSTAYMELRSLRSDDTAMYYCARDAFSRVGYWYFDLWGRGTLVTVSS VL: SYELTQPPSVSVAPGQAARITCGGNNIGSKTVHWYQQKPSQAPVLVVYDDSDRPSGIPERFSGSNSGNTATLTISRVEAGDEADYYCQVWDSSGDHPVFGGGTKLTVL
Result: Not satisfied

Request: Threshold test, Kd < 3 nM: ADI-14590 (antibody, V domains shown) VH: EVQLVESGAEVKKPGESLKISCKGSGYSFATYWIGWVRQMPGKGLEWMGIIYPGDSDTRYSPSFQGQVTISADKSISTAYLQWSSLKASDTAIYYCARAKLPVAGLYYFDYWGQGTLVTVSS VL: DIQLTQSPSSLSASVGDRVTITCRASQGISSTLAWYQQKPGKAPKLLIYDASSLESGVPSRFSGSGSGTDFTLTISSLHPEDFATYYCQQFNTYPTFGGGTKVEIK
Result: Satisfied

Request: Threshold test, Kd < 3 nM: ADI-20993 (antibody, V domains shown) VH: EVQLVESGGGVVQPGRSLRLTCAASGFPFSSYAMHWVRQAPGKGLEWVAVTWYDGPNRDYADSVKGRFTVSRDNSKNTLYLQMTSLRADDTAVYYCARRGSWGSFDYWGQGTLVTVSS VL: DIVMTQSPLSLSATPGEPASISCRPSQSLLHSNGYNYLEWYLQKPGQSPQLLIYLGSNRASGVPDRFSGGGSGTDFTLRISRVEADDVGVYYCMQASQTPYTFGQGTKVEIK
Result: Satisfied

Request: Threshold test, Kd < 3 nM: ADI-14598 (antibody, V domains shown) VH: QVQLVQSGAEVKKPGSSVKVSCKASGGTFSSYAIYWVRQAPGQGLECMGGIIPIFGSANYAQKFQGRVTITADESTSTAYMELSSLRSEDTAVYYCATDSLKTTYYYGSSGYFRDHVWGQGTTVTVSS VL: ETTLTQSPSSLSASVGDRVTITCRASQGISNYLAWYQQKPGKVPKLLIFAASTLQSGVPSRFSGSGSGTDFTLTISSLQPEDVATYYCQNFNSVLSFTFGPGTKVDIK
Result: Satisfied

Request: Threshold test, Kd < 3 nM: ADI-20983 (antibody, V domains shown) VH: EVQLVESGGALVQPGGSLRLSCSASGFTFSSYAMHWVRQAPGKGLEYVSAINNFGDKTYYTDSVEGRFTISRDNSKKTLYLQMSSLRPEDTAVYYCVKDRGYCSSPSCYAVPYYYFYGMDVWGQGTTVTVSS VL: EIVMTQSPSSLSASVGDRVTITCQASQGISNYLHWYQQKPGKAPKLLIYDASNLEAGVPSRFSGSGAGTDFTFTISSLQPEDVATYYCQHYNNLPFTFGPGTKVDIK
Result: Satisfied
